# assay system: Tubulin (Bos taurus, UniProt Q6B856+Q862L2+Q862F3)
# test details: Inhibition of bovine brain tubulin polymerization preincubated for 15 mins followed by GTP addition and measured for 20 mins by turbidimetry-based spectrophotometric method
In this section we review reported IC50 values for a set of compounds.

COc1cc(C2CCc3c(ccc(OC)c3OC)C(=O)C2)cc(OC)c1OC (stereo unspecified)
> 20 µM
COc1ccc2c(c1O)CCCC(O)C2(O)c1cc(OC)c(OC)c(OC)c1 (stereo unspecified)
> 20 µM

Challenge: Give its IC50 value. Item: COc1ccc2c(c1O)CCCCC2(O)c1cc(OC)c(OC)c(OC)c1 (stereo unspecified)
Response given: > 20 µM

Challenge: // lookup IC50 for COCCOCCOc1c(OC)ccc2c1CCCC=C2c1cc(OC)c(OC)c(OC)c1
Response given: > 20 µM

Challenge: Recorded IC50 for COc1cc(C2=CCCCc3c2ccc(OC)c3OCCO)cc(OC)c1OC , please?
Response given: > 20 µM

Challenge: Find the recorded IC50 belonging to COc1cc(C2(O)C=CCCc3c2ccc(OC)c3OC)cc(OC)c1OC (stereo unspecified) and report it.
Response given: > 20 µM

Hello, the source for this data is ChEMBL document CHEMBL4350968, in case you need it.
